# ASSAY_SYSTEM: T1, 人MUC17-Fc蛋白 (human, UniProt Q685J3 4131-4390)
# T1 construct: range 4131-4390; No linker is described; also called MUC17抗原; not shown: C-terminal Fc tag
# T1 sequence (Q685J3 4131-4390 limits assumed, form in doubt): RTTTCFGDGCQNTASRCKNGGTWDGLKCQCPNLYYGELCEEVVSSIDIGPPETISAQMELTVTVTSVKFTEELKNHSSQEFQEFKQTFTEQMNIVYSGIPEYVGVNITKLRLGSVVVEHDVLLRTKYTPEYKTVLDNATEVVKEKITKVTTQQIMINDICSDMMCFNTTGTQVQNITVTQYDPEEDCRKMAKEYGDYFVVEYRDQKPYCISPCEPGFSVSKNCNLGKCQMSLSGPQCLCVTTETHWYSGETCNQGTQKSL
# ASSAY_OVERVIEW: ELISA, coated MUC17 antigen, antibody titrated
ENDPOINT_LABEL: pEC50
Answers are plain numbers, as −log10 of the molar value.

BINDER	REPORTED_RESULT
ch-19E11 (antibody, human IgG1, kappa, V domains shown, also called 嵌合抗体ch-19E11) VH: EVQLQQSGPELEKPGASVKISCKASGFSFTGYNMNWVKQSNGKSLEWIGNIDPYYGGTTYNQKFKGKATLTVDISSSTAHMELKSLTSEDSAVYFCARSVTTVGYPMDYWGQGTSVTVSS VL: DIVMTQSPSSLAMSVGQKVTMNCKSSQSLLNSYNHKNCLAWYQQKPGQSPKLLISFASARESGVPDRFIGSGSGTDFTLTISSVQAEDLADYFCHQHYTSPLTFGAGTKLELKR	9.85
hu-27A3 (antibody, human IgG1, kappa, V domains shown, Humanized IgG1/kappa, made in HEK-293E cells; also called 27A3人源化抗体; 人源化后的27A3) VH: QVQLVQSGAEVKKPGASVKVSCKASGYSFTIYWMHWVRQAPGQGLEWIGMSHPSDSESRLNQKFKDRATLTVDKSTSTAYMELSSLRSEDTAVYYCSRPYYGSSAWFADWGQGTLVTVSA VL: DIVMTQSPDSLAVSLGERATINCKSSQSLLNSSNQKNYLAWYQQKPGQSPKLLIYFASTRESGVPDRFSGSGSGTDFTLTISSLQAEDVAVYYCQQHYSFPLTFGAGTKLELRR	10.12
ch-27A3 (antibody, human IgG1, kappa, V domains shown, also called 嵌合抗体ch-27A3) VH: QVQLQQPGAELVRPGASVKLSCKASGYSFTIYWMHWVKQRPGQGLEWIGMSHPSDSESRLNQKFKDKATLTVDKSSSTAYMQLSSPTSEDSAVYYCSRPYYGSSAWFADWGQGTLVTVSA VL: DIVMTQSPSSLAMSVGQKVTMSCKSSQSLLNSSNQKNYLAWYQQKPGQSPKLLIYFASTRESGVPDRFIGSGSGTDFTLSISSVQAEDLADYFCQQHYSFPLTFGAGTKLELRR	10.10

# next binder below
Report pEC50 for hu-19E11 (antibody, human IgG1, kappa, V domains shown, Humanized IgG1/kappa, made in HEK-293E cells; also called 19E11人源化抗体; 人源化后的19E11) VH: QVQLVQSGAEVKKPGASVKVSCKASGFSFTGYNMNWVRQAPGQSLEWIGNIDPYYGGTTYNQKFKGRATLTVDISISTAYMELSRLRSDDTAVYFCARSVTTVGYPMDYWGQGTSVTVSS VL: DIVMTQSPDSLAVSLGERATINCKSSQSLLNSYNHKNCLAWYQQKPGQSPKLLISFASARESGVPDRFSGSGSGTDFTLTISSLQAEDVAVYFCHQHYTSPLTFGAGTKLELKR please.
9.88
